- target_desc: Dual specificity protein phosphatase 1 (Homo sapiens)
- procedure_text: MKP-1 phosphatase inhibitors, primary screen, biochemical, in vitro (AID 374);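 note: 0% = DMSO max control wells and 100% = wells with enzyme stopped by NaOH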
- measurement_parameters: recombinant MKP-1, OMFP hydrolysis fluorescence; hits give high values;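 compounds tested at a single concentration somewhere between 10 and 100 µM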
About 100 (0.15%) of roughly 65,000 compounds were called active. The sample as a whole holds a higher share of actives than the screen did.
parameter: inhibition (%)
API: value field is a number in %; no unit string.

Some entries whose results are on file:
| molecule | endpoint_unit | inhibition |
| --- | --- | --- |
| CCOC(=O)C1CCN(C(=O)CSc2cc(=O)n(C)c3ccccc23)CC1 | % | 3.52 |
| c1csc(CN2CCN(Cc3cccs3)C2c2cccs2)c1 | % | -1.36 |

# inhibition lookup, item CCSC(C)CC1C/C(=N/O)c2c(C)noc2C1 (stereo unspecified) 12.5

====

- target_desc: Dual specificity protein phosphatase 1 (Homo sapiens)
- procedure_text: MKP-1 phosphatase inhibitors, primary screen, biochemical, in vitro (AID 374);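 note: 0% = DMSO max control wells and 100% = wells with enzyme stopped by NaOH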
- measurement_parameters: recombinant MKP-1, OMFP hydrolysis fluorescence;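 compounds tested at a single concentration somewhere between 10 and 100 µM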
The campaign covered roughly 65,000 compounds. About 100 (0.15%) were called active.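 Rule for the calls: active = inhibition above about 50% (limit read from the data); inconclusive = inhibition over screen mean plus 3 SD, below that limit; inactive = the rest.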 The sample as a whole holds a higher share of actives than the screen did.
Hi there, use one of these labels in your reply, thanks! T = active, F = inactive

Answered examples (5):
| molecule | group |
| --- | --- |
| O=C(NCCN1CCOCC1)c1ccc2c(c1)ncn2C1CCCC1 | F |
| Nn1c(SCC(=O)NC(=O)NC2CCCC2)nnc1-c1ccccc1F | F |
| Cc1ccc(CNC(=O)C2CCCN(S(C)(=O)=O)C2)cc1 (stereo unspecified) | F |
| Cc1ccc2c(NC(=O)C3CC3)cccc2n1 | F |
| S=C1SCN(CCN2CCOCC2)CN1Cc1ccccc1 | F |

I'd appreciate the recorded outcome for `CCOc1cc(/C=N/n2cnnc2)c(Br)cc1O` from this test. F

And what about the molecule `CC/C(=N\O)C(C)(C)/[N+]([O-])=C/c1ccc(Br)cc1` ? F

And what about the molecule Cc1cc(C)c(NC(=O)CS(=O)CC(=O)Nc2cccnc2)c(C)c1 (stereo unspecified) ? F

And what about the molecule `Cn1cccc1C(=O)NC(=O)COC(=O)Cc1coc2ccc3ccccc3c12` ? F

And what about the molecule `CC(=O)Nc1cc2ccc(OC(C)=O)cc2oc1=O` ? F

And what about the molecule `O=C(Cn1nnc2ccccc2c1=O)Nc1cc(C(F)(F)F)ccc1N1CCOCC1` ? F

And what about the molecule `CC(C)=C(NC(=O)c1ccco1)C(=O)NCCc1nc2ccccc2[nH]1` ? F

And what about the molecule `Cc1nn(-c2ccccc2)c2c1C(=O)NC(=O)C(C)(C)C2` ? F

====

- target_desc: Dual specificity protein phosphatase 1 (Homo sapiens) (UniProt P28562)
- Sequence (P28562 whole entry, looked up): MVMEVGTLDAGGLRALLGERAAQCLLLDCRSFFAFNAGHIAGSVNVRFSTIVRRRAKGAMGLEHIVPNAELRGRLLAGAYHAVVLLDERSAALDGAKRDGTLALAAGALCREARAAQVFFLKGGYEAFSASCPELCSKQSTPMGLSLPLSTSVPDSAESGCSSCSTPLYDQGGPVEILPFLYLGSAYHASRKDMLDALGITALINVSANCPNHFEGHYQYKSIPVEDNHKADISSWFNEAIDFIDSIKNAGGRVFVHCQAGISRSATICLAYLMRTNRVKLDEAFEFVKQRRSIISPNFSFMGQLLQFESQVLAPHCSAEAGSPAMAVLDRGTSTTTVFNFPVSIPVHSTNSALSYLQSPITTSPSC
- procedure_text: MKP-1 phosphatase inhibitors, primary screen, biochemical, in vitro (AID 374);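 note: 0% = DMSO max control wells and 100% = wells with enzyme stopped by NaOH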
- measurement_parameters: recombinant MKP-1, OMFP hydrolysis fluorescence; hits give high values;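 compounds tested at a single concentration somewhere between 10 and 100 µM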
The whole screen tested about 65,000 compounds, of which about 100 (0.15%) were called active. The entries come from a sample that favours actives as a whole.
inhibition values by entry
API: value field is a number in %; no unit string.

| compound | inhibition / % |
| --- | --- |
| Cc1nc(-c2ccc(NC(=O)c3cccs3)cc2)cs1 | -3.52 |

# inhibition lookup, item `O=C(CCS(=O)(=O)Cc1ccccc1F)NCCCN1CCCCC1` 5.21

And what about the compound CC(C)C(C(=O)NC1CCCCC1)N(CC1CCCO1)C(=O)CNS(=O)(=O)c1ccc(F)cc1 (stereo unspecified) ? 42

And what about the compound `Cc1cc(C)c2c(c1)cc(C)c1nnc(SCC(=O)Nc3cc(C)on3)n12` ? 8.08

And what about the compound `CCCc1nc(-c2ccccc2O)n(-c2ccccc2)n1` ? -14.3

And what about the compound `C=CCn1c(COc2ccccc2F)nnc1SCC(=O)N1CC(=O)Nc2ccccc21` ? 2.2

====

- target_desc: Dual specificity protein phosphatase 1 (Homo sapiens)
- procedure_text: MKP-1 phosphatase inhibitors, primary screen, biochemical, in vitro (AID 374);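 note: 0% = DMSO max control wells and 100% = wells with enzyme stopped by NaOH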
- measurement_parameters: recombinant MKP-1, OMFP hydrolysis fluorescence;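 compounds tested at a single concentration somewhere between 10 and 100 µM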
Hit rate of the full screen: of about 65,000 compounds, about 100 (0.15%) were called active.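 How the source made its calls: active means inhibition above about 50% (limit read from the data); inconclusive means inhibition over screen mean plus 3 SD, below that limit; inactive means the rest.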 For the sample, actives were picked, then their nearest neighbours and some compounds at random.
Hi there, use one of these labels in your reply, thanks! class 1 (active), class 0 (inactive)

Answered examples (8):
| molecule | group |
| --- | --- |
| CN(C)CCCn1c(N)c(C#N)c2nc(C#N)c(C#N)nc21 | class 0 |
| CC1=NC2(CCCc3c2no[n+]3[O-])N(O)C1(C)C (stereo unspecified) | class 0 |
| COc1ccc(CCN2CNc3c(c(=O)n(C)c(=O)n3C)C2)cc1OC | class 0 |
| COc1ccc2c(CC(=O)Nc3nnc(C4CC4)s3)coc2c1 | class 0 |
| COc1ccccc1Oc1ccc(S(=O)(=O)Nc2cccnc2)cc1 | class 0 |
| CCOc1ccc(NC(=O)Nc2ccc(N(C)C(C)=O)cc2)cc1 | class 0 |
| COCCOC(=O)C1=C(C)N=c2s/c(=C\c3cccs3)c(=O)n2C1c1cccs1 (stereo unspecified) | class 0 |
| O=C(Nc1c(Cl)cccc1Cl)C1CCC1 | class 0 |

I'd appreciate the recorded outcome for CCN(CC)P(=O)(C(NC(=O)OC)C(F)(F)C(F)(F)C(F)(F)C(F)F)N(CC)CC (stereo unspecified) from this test. class 0

And what about the molecule `CCc1nc(C)cn1S(=O)(=O)c1cc(OC)c(C)cc1C` ? class 0

And what about the molecule `CCN(CCCNC(=O)C1CCN(S(=O)(=O)c2cnc[nH]2)CC1)c1ccccc1` ? class 0

And what about the molecule `CCN1C(=O)CS/C1=N\c1nccs1` ? class 0

And what about the molecule `Cn1c(SCC(=O)c2cccs2)nnc1-c1ccco1` ? class 0

And what about the molecule COC(=O)C1C(=O)CC(C)(O)C(C(=O)OC)C1c1ccc2c(c1)OCO2 (stereo unspecified) ? class 0

And what about the molecule `CCOc1cc(-c2conc2N)cc(OCC)c1OCC` ? class 0

And what about the molecule CC1CCCCN1CC(=O)NCc1ccc2c(c1)OCO2 (stereo unspecified) ? class 0

====

- target_desc: Dual specificity protein phosphatase 1 (Homo sapiens)
- procedure_text: MKP-1 phosphatase inhibitors, primary screen, biochemical, in vitro (AID 374);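 note: 0% = DMSO max control wells and 100% = wells with enzyme stopped by NaOH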
- measurement_parameters: recombinant MKP-1, OMFP hydrolysis fluorescence; hits give high values;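 compounds tested at a single concentration somewhere between 10 and 100 µM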
The campaign covered roughly 65,000 compounds. About 100 (0.15%) were called active. The full list was thinned out, with actives kept by preference.
inhibition values by entry
API: value field is a number in %; no unit string.

| compound | inhibition (%) |
| --- | --- |
| COc1cccc(N2CCN(C3CC(=O)N(c4ccc(Cl)cc4)C3=O)CC2)c1 (stereo not drawn) | 9.47 |
| CCCC(NC(=O)c1ccccc1)c1nc2ccccc2n1Cc1ccc(C(=O)OC)o1 (stereo not drawn) | -11.6 |
| Cc1nnc(NC(=O)CSc2nccn2-c2cccc(C)c2C)s1 | -0.12 |

# inhibition lookup, item CCOC(=O)CN1C(=O)C(O)(CC(=O)c2ccccn2)c2ccccc21 (stereo not drawn) -1.14

And what about the compound `Cc1ccc2nc(NCCCNC(=O)c3cnccn3)c(C#N)cc2c1` ? 16.8

And what about the compound `Cc1c(C)c2cc3c4c(oc3c(C)c2oc1=O)CCCC4` ? 10

And what about the compound COc1ccc(OC)c2sc(NC(=O)C3COc4ccccc4O3)nc12 (stereo not drawn) ? 10.2

And what about the compound `CCCCCCn1c(CN2CCCCC2)nc2c1c(=O)n(C)c(=O)n2C` ? 3.15

And what about the compound `COc1ccc(S(=O)(=O)N2CCCC2)c(C)c1C` ? 2.42

====

inhibition values by entry
- target_desc: Dual specificity protein phosphatase 1 (Homo sapiens) (UniProt P28562)
- procedure_text: MKP-1 phosphatase inhibitors, primary screen, biochemical, in vitro (AID 374);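 note: 0% = DMSO max control wells and 100% = wells with enzyme stopped by NaOH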
- measurement_parameters: recombinant MKP-1, OMFP hydrolysis fluorescence; hits give high values;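 compounds tested at a single concentration somewhere between 10 and 100 µM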
In all, about 65,000 compounds went through this assay and about 100 (0.15%) were called active. What follows is part of a selection rich in actives, with near analogues and random picks from the rest.

Some entries whose results are on file:
| compound | parameter | value_observed |
| --- | --- | --- |
| CCn1c(SCC(=O)Nc2cc(C)c(Cl)cc2OC)nnc1-c1ccco1 | inhibition | 13% (inactive) |
| CC(C)(C)n1nc2c(c1NC(=O)c1ccc(S(=O)(=O)N3CCCC3)cc1)CS(=O)C2 (stereo unspecified) | inhibition | 1.54% (inactive) |
| Cc1cccc(N2C(=O)SC(N(CC(=O)O)c3cccc(C)c3)C2=O)c1 (stereo unspecified) | inhibition | 11.8% (inactive) |
| O=C(NCC(F)(F)F)Nc1nnc(C(F)(F)F)s1 | inhibition | -9.86% (inactive) |
| CC1Cn2c(nnc2-c2cccs2)S1 (stereo unspecified) | inhibition | -6.93% (inactive) |

Lab note: next compound to report on.
# inhibition lookup, item Cc1nc2sc(C(c3ccco3)N3CCC4(CC3)OCCO4)c(O)n2n1 (stereo unspecified) 4.37% (inactive)
